# ASSAYED TARGET: Nav1.7 (Homo sapiens, UniProt Q15858, N1459A/S1320A)
# PROCEDURE TEXT: whole-cell patch clamp in transfected HEK293T cells
VALUE TYPE: pIC50
Numbers only, as −log10 of the molar value.

Lab book: pIC50 of C=C(C)[C@@H]1CCC(C)=C[C@H]1c1c(O)cc(CCCCC)cc1O noted as 5.37

* * *

# ASSAYED TARGET: Nav1.7 (Homo sapiens, UniProt Q15858, F387A)
# Sequence (Q15858 whole entry F387A): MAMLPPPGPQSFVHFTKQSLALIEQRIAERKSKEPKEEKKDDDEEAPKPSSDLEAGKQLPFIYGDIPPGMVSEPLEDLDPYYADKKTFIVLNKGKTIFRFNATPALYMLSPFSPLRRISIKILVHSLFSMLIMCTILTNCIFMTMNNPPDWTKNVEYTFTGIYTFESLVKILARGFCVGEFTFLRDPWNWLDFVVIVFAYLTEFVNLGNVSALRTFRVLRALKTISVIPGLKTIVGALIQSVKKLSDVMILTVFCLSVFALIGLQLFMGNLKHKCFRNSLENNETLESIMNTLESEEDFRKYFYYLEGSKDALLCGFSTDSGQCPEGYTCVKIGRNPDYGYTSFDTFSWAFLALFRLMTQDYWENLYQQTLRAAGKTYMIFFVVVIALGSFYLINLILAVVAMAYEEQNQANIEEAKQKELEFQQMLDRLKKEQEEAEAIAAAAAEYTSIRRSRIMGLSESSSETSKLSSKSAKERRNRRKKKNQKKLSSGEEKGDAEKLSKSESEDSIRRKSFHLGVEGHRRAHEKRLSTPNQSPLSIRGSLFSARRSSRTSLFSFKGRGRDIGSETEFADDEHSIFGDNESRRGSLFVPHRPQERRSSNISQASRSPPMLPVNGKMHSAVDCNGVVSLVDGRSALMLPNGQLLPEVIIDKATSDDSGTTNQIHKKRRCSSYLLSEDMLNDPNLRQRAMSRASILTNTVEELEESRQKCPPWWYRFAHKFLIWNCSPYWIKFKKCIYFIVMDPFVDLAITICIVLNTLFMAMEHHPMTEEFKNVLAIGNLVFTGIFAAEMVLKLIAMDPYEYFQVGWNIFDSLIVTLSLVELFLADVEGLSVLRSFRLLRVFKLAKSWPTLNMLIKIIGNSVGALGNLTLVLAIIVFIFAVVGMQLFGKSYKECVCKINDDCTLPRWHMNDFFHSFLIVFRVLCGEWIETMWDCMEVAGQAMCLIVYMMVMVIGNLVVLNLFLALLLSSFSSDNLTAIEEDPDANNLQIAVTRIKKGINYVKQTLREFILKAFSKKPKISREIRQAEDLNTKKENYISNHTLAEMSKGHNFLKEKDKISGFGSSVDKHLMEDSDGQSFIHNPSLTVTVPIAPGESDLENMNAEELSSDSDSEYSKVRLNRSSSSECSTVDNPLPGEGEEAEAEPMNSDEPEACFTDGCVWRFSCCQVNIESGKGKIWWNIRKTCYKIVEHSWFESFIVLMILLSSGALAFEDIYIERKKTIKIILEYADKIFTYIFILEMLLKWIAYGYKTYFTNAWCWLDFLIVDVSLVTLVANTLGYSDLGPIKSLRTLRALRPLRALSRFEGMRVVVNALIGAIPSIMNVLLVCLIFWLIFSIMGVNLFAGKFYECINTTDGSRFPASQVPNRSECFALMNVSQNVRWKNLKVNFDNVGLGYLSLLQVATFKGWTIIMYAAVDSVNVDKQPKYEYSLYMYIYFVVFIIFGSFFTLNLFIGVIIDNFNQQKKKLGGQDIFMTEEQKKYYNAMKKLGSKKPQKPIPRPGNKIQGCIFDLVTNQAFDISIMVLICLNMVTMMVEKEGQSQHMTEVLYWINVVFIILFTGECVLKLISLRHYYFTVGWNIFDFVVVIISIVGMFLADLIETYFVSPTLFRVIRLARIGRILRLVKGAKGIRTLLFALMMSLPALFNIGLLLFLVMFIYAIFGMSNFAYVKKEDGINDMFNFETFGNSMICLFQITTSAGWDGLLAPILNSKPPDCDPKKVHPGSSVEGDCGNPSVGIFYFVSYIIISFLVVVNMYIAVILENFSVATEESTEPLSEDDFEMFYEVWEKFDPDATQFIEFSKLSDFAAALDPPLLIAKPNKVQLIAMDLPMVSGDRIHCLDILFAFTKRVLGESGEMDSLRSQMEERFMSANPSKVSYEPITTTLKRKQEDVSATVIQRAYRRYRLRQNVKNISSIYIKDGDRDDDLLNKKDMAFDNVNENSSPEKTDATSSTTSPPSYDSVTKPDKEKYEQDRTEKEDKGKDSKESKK
# PROCEDURE TEXT: whole-cell patch clamp in transfected HEK293T cells
VALUE TYPE: IC50 (µM)
One number for each entry, in µM.

Lab book: IC50 of C=C(C)[C@@H]1CCC(C)=C[C@H]1c1c(O)cc(CCCCC)cc1O noted as 3.65

* * *

# ASSAYED TARGET: Nav1.7 (Homo sapiens)
# Construct: no beta subunit stated for this line
# PROCEDURE TEXT: cryo-EM structure at […] Å; Kd for the inactivated state calculated from patch-clamp (alpha subunit alone)
VALUE TYPE: Kd

Lab book: Kd of C=C(C)[C@@H]1CCC(C)=C[C@H]1c1c(O)cc(CCCCC)cc1O noted as ~50 nM

* * *

# ASSAYED TARGET: Nav1.7 (Homo sapiens, UniProt Q15858, V383A)
# Sequence (Q15858 whole entry V383A): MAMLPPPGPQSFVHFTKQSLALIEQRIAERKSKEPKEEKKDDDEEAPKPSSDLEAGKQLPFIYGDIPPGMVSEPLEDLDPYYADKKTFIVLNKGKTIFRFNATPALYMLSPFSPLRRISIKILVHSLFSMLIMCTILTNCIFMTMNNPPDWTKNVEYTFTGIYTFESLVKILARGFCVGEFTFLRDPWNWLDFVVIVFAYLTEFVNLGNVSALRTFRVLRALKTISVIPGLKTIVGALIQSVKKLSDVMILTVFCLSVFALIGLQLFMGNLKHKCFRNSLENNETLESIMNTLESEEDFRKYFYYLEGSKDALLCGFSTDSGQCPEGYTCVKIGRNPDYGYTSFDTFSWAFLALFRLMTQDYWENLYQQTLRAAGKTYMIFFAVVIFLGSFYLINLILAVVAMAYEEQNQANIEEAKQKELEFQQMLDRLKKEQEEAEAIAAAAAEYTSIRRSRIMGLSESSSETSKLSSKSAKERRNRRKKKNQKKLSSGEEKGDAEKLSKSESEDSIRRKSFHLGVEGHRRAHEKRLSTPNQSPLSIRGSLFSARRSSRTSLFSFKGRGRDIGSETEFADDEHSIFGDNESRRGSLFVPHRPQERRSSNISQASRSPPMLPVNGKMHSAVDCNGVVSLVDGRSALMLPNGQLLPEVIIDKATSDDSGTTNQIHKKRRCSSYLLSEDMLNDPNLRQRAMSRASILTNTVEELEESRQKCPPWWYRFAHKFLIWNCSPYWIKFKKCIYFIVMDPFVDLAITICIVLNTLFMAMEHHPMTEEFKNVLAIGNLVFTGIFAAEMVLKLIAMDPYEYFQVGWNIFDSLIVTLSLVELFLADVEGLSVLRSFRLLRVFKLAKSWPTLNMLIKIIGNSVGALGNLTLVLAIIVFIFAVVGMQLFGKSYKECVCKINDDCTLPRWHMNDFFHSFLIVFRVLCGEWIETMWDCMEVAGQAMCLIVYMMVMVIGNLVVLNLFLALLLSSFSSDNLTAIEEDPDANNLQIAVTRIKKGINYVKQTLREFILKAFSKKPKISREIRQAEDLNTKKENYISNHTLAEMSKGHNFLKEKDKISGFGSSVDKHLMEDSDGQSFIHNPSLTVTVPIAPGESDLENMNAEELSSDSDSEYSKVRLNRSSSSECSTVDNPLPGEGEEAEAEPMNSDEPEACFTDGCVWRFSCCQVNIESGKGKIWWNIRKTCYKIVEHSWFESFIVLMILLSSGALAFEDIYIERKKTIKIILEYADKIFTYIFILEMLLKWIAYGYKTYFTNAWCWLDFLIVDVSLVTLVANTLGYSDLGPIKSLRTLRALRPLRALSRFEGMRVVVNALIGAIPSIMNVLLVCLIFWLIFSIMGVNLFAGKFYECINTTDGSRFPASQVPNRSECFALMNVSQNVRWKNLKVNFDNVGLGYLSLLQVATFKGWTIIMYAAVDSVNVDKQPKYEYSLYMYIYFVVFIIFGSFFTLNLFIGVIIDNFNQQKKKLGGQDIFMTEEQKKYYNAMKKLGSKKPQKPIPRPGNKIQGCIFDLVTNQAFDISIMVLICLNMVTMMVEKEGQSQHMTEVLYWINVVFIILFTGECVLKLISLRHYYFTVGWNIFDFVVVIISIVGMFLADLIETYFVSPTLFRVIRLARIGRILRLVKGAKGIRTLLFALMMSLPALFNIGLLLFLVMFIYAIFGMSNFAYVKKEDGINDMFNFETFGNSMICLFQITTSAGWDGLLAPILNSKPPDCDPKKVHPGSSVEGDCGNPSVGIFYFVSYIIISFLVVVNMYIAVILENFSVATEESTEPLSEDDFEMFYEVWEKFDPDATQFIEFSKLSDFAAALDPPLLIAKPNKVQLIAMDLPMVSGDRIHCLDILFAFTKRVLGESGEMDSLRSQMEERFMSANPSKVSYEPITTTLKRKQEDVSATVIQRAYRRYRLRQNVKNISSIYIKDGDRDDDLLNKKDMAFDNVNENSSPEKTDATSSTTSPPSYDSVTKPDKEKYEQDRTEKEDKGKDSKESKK
# PROCEDURE TEXT: whole-cell patch clamp in transfected HEK293T cells
VALUE TYPE: pIC50
One number for each entry, as −log10 of the molar value.

Lab book: pIC50 of C=C(C)[C@@H]1CCC(C)=C[C@H]1c1c(O)cc(CCCCC)cc1O noted as 5.45
